- EXPERIMENT: Inhibition of photosynthesis in Vitis vinifera cv. Pinot noir assessed as reduction in Hill reaction activity 6 mM measured 7 days post compound application relative to untreated control
- Type: organism-based
- CONDITIONS: in vivo
ENDPOINT: inhibition at 168 h, 6000 µM (%)
Expressed in %, but write only the number.

Fill in reported inhibition at 168 h, 6000 µM for this entry: `N#Cc1c[nH]cc1-c1cccc2c1OC(F)(F)O2`
36

====

- EXPERIMENT: Inhibition of photosynthesis in Vitis vinifera cv. Pinot noir assessed as reduction in net photosynthetic rate at 6 mM measured 7 days post compound application
- Type: organism-based
- CONDITIONS: in vivo
ENDPOINT: inhibition at 168 h, 6000 µM (%)
Expressed in %, but write only the number.

Fill in reported inhibition at 168 h, 6000 µM for this entry: `N#Cc1c[nH]cc1-c1cccc2c1OC(F)(F)O2`
65

====

- EXPERIMENT: Inhibition of photosynthesis in Vitis vinifera cv. Pinot noir assessed as reduction in dark respiration at 1.2 mM measured 7 days post compound application
- Type: organism-based
- CONDITIONS: in vivo
ENDPOINT: inhibition at 168 h, 1200 µM
State the result as a value with its unit after it.

Fill in reported inhibition at 168 h, 1200 µM for this entry: N#Cc1c[nH]cc1-c1cccc2c1OC(F)(F)O2 [FLUDIOXONIL]
30%

====

- System: photosystem 2
- EXPERIMENT: Inhibition of photosynthesis in Vitis vinifera cv. Pinot noir assessed as reduction in relative quantum yield of photo system 2 at 30 mM measured 7 days post compound application relative to untreated control
- Format: organism-based
- CONDITIONS: in vivo
ENDPOINT: inhibition at 168 h, 30000 µM
State the result as a value with its unit after it.

Fill in reported inhibition at 168 h, 30000 µM for this entry: `N#Cc1c[nH]cc1-c1cccc2c1OC(F)(F)O2`
10%
